Origin of values: ChEMBL document CHEMBL1201862

Test system: SNB-78
experiment-notes: NCI tumour cell line growth inhibition, 48 h
Calls of active or inactive are those of the source. Rule as the data show it: active = GI50 up to about 1.1 µM and inactive = higher.
Bench note: report the call from 1 for active, -1 for inactive

Completed entries (count: 6):
> print(dat)
                                   molecule  assigned.label
1  COC(COC(N)=O)C1=C(N2CC2)C(=O)C(C)=C(N2CC2)C1=O (stereo not drawn) [CARBOQUONE]               1
2  CC(NC(=O)/C(C#N)=C/c1ccc2[nH]ccc2c1)c1ccccc1 (stereo not drawn)              -1
3  CC(=O)OCC1=C(COC(C)=O)C(=O)c2c(O)ccc(O)c2C1=O              -1
4                   O=C1Nc2ccccc2Nc2ccncc21              -1
5  COc1ccc(C(=O)N/N=C/c2c(C)n(C)n(-c3ccccc3)c2=O)cc1              -1
6  Cc1c(-c2coc(-c3ccc(Cl)cc3)n2)c(=O)n(-c2ccccc2)n1C              -1

Recorded test outcome, item "C/C=C1\NC(=O)[C@H]2CSSCCC=C[C@H](CC(=O)N[C@H](C(C)C)C(=O)N2)OC(=O)[C@H](C(C)C)NC1=O" 1

// return assay outcome for "Cc1cc(C)nc(NS(=O)(=O)c2ccc(Nc3c4ccccc4nc4c(C(=O)Nc5ccc(S(N)(=O)=O)cc5)cccc34)cc2)n1" -1

For Cc1ccccc1NC(=O)C(=O)C(C(=O)c1ccccc1F)C1OC(=O)c2ccccc21 (stereo not drawn) , which call appears in the assay record? -1

---

Test system: SK-MEL-5
experiment-notes: NCI tumour cell line growth inhibition, 48 h
Active and inactive are the calls of the source. Rule as the data show it: active = GI50 up to about 1.1 µM and inactive = higher.
Classes to choose from: TRUE for active, FALSE for inactive

Use these answered entries as a reference point.
> print(dat)
                                   molecule  assigned.label
1  N[C@H]1C2C3CC4C5CC(C42)C1(c1ccccc1)C53 (some centres not stated)           FALSE
2  NC(=O)c1c([N+](=O)[O-])cc(C(F)(F)F)cc1[N+](=O)[O-]           FALSE
3                 Oc1c(-c2ccccc2)sc2ccccc12           FALSE
4                       O=C1CSc2sc(=S)sc2S1           FALSE
5        CCN(CC)N1C(=O)[N-][N+](CC)(CC)C1=O           FALSE
6  CCOC(=O)CNC(=O)C(CSCC1C(=O)Nc2ccccc21)NC(=O)CCC(N)C(=O)OCC (configuration not stated)           FALSE

Entry Cc1ccc(Sc2ccccc2C23OC(C)(C4C(=O)N(c5ccccc5)C(=O)C42)N(C)C3=O)cc1 (configuration not stated) : call = ? FALSE

Test call, this molecule: "CC(=O)OCSc1ncnc2c1ncn2CN1CCOCC1" FALSE

Recorded test outcome, item CCC1(O)C(=O)OCc2c1cc1n(c2=O)Cc2cc3ccccc3nc2-1 (configuration not stated) TRUE

Given "CCOC(=O)C1=C(C)NC(C)=C(C(=O)OCC)C1c1ccc(Cl)cc1" , state the outcome it received in this test. FALSE

Dear colleague, could you share the recorded outcome for "C/C(N)=[N+](/C)[O-]" when you have a moment? FALSE

Called result for "COc1c(Cl)ccc(Cl)c1C(=O)NNC(=O)c1c(Cl)c(Cl)c(Cl)c(Cl)c1-c1nc2cc(C(=O)c3ccccc3)ccc2[nH]1" FALSE

---

System: RPMI-8226
experiment-notes: NCI tumour cell line growth inhibition, 48 h
The source made the active and inactive calls. Rule as the data show it: active = GI50 up to about 1.1 µM and inactive = higher.
metric: GI50

Check out these entries, answers already filled in.
> print(dat)
                                   compound  test.system  metric  reported.measurement
1  Cc1c(CCN=P(c2ccccc2)(c2ccccc2)c2ccccc2)c(=O)n2c([nH]c3ccccc32)c1C#N    RPMI-8226    GI50    > 10 µM (inactive)
2  CCOC(=O)[C@@H]1ON2O[C@@H](OC3CCCC3(c3ccccc3)c3ccccc3)C[C@H]3OC(=O)[C@@H]1C32 (stereo not given in full)    RPMI-8226    GI50    35.6 µM (inactive)
3              O=C(O)C/C(=C\c1ccccc1)C(=O)O    RPMI-8226    GI50   > 100 µM (inactive)
4  C=C1CC(c2ccc(OCCCN3C(=O)c4ccccc4C3=O)c(OC)c2)OC1=O (stereo not given)    RPMI-8226    GI50     0.849 µM (active)

Then this compound:
Bench note: what GI50 did "COc1ccc(NC(=O)CC(=O)NN)cc1" show? > 100 µM (inactive)

---

Tested on: OVCAR-8
experiment-notes: NCI tumour cell line growth inhibition, 48 h
Activity calls are given as the source filed them. No stated cut-off is given here; in the data, active = GI50 up to about 1.1 µM and inactive = higher.
Pick one and only one: T for active, F for inactive

// return assay outcome for "CCOC(=O)c1cc(-c2ccc(OC)cc2)c([N+](=O)[O-])n1C" F

Hi team, can someone confirm the assay call for "O=C1N[C@H]2c3c(Cl)sc(Cl)c3[C@@H](O)[C@H]2O1" ? F

# lookup: test call for C/C(=N/N(C=O)C[n+]1ccccc1)C(CN(CC(C)C)CC(C)C)C(=O)Nc1ccc(C)cc1C (stereo not given) F

Per the assay record, what outcome was assigned to O=C(CC(C(=O)c1cccs1)c1ccsc1)c1ccco1 (stereo not given) ? F

Status in this test for COC1=CC(=O)C2[C@H]3Cc4ccccc4[C@H]3C2(C)C1=O (stereo not given in full) ? F

Please state the recorded outcome for this compound: "COc1ccc(OC)c(/C=N/N=C(\N)NO)c1" F

Would you mind telling me which call this test gave "O=[N+]([O-])c1cc(Cl)cc2c1nc(NCCO)c1ccccc12" ? F

---

Test system: SK-MEL-2
experiment-notes: NCI tumour cell line growth inhibition, 48 h
Active and inactive are the calls of the source. Rule as the data show it: active = GI50 up to about 1.1 µM and inactive = higher.
Hi! Could you answer with just one of these? active, inactive

Worked examples follow.
> print(dat)
                                   molecule  test.system  assigned.label
1        CC(=O)Oc1c2ccsc2c(OC(C)=O)c2ccsc12     SK-MEL-2          active
2                   O=C1Nc2ccccc2Nc2ccncc21     SK-MEL-2        inactive
3  Cc1ccccc1-n1c(=O)c2ncn(C3CCCO3)c2n(-c2ccccc2C)c1=S (stereo not given)     SK-MEL-2        inactive

Call for entry "COc1cccc2cc(C(N)=O)c(=N)oc12" : inactive

For this molecule, state the assay outcome: "C[C@]12CC[C@H](O)CC1=CC[C@@H]1[C@@H]2CC[C@]2(C)C(=O)/C(=C/c3ccc([N+](=O)[O-])cc3)C[C@@H]12" inactive

Per the records of this test, what outcome belongs to O=C(O)c1ccc(C2C(=O)N[C@@H]3CCC[C@H]23)cc1 (stereo not given in full) ? inactive

In this assay, the call recorded for "Nc1c(Cl)ncnc1NCC1(CO)CCC1" was what? inactive

---

Test system: SNB-19
experiment-notes: NCI tumour cell line growth inhibition, 48 h
Active and inactive are the calls of the source. Cut-off read from the data, not from the text of the source: active = GI50 up to about 1.1 µM and inactive = higher.
metric: GI50

Observe how each entry below is paired with its result.
> print(dat)
                                   molecule  test.system  reported.measurement
1  Cc1cc2c(=O)cc(-c3ccc(Cl)c(Cl)c3)oc2c(C(=O)O)c1C       SNB-19   > 100 µM (inactive)
2  CCC(C)c1c(Cl)nc(Cl)nc1Cl (stereo unspecified)       SNB-19      16 µM (inactive)
3  N/N=C1\C(=O)N(C2CCCCCC2)C(=O)C1C(=O)NC1CCCCCC1 (stereo unspecified)       SNB-19    35.6 µM (inactive)

Could you share which GI50 value was measured for BrC(=C(c1ccc(OC2CCCCO2)cc1)c1ccc(OC2CCCCO2)cc1)c1ccccc1 (stereo unspecified) ? > 100 µM (inactive)

# GI50 lookup, item CCCCC/C=C1\CCC(CN2CCOCC2)C1=O (stereo unspecified) 16.8 µM (inactive)

# query: GI50 of entry "Cc1ccc(C(=O)N(Cc2ccccc2)Cc2ccccc2)cc1/N=N/N(C)C" 15 µM (inactive)

---

Measured GI50 accompanies every entry in the list below.
Tested on: NCI-H23
experiment-notes: NCI tumour cell line growth inhibition, 48 h
Active and inactive are the calls of the source. Cut-off read from the data, not from the text of the source: active = GI50 up to about 1.1 µM and inactive = higher.

// solved cases for GI50 follow
> print(dat)
                                   molecule  test.system  reported.measurement
1  CN(C)CC1CCCc2ccccc2C1=O (stereo not given)      NCI-H23    6.41 µM (inactive)
2  Cc1c(N2C(=O)CS(=O)(=O)C2c2cccc(Oc3ccccc3)c2)c(=O)n(-c2ccccc2)n1C (stereo not given)      NCI-H23   > 100 µM (inactive)
3                     Clc1ccc2c(Cl)ncnc2c1I      NCI-H23   > 100 µM (inactive)
4  C[C@]12CC/C(=N\OCCN3CCCCC3)C=C1CCC1C2CC[C@@]2(C)C1CC[C@]2(C)O (stereo not given in full)      NCI-H23    13.4 µM (inactive)
5  CCc1nc(N)nc(N)c1-c1ccc(Cl)c(/N=C/N(C)C)c1      NCI-H23    28.6 µM (inactive)

Sample "S=c1nc(Nc2ccc(Br)cc2)c2c3c(sc2[nH]1)CN(N1CCc2c(sc4[nH]c(=S)nc(Nc5ccc(Br)cc5)c24)C1)CC3" — what was its GI50? 24 µM (inactive)

Which measured GI50 value corresponds to "CN(C)C(=S)/N=c1\ssc(=S)n1Cc1ccccn1" ? 3.62 µM (inactive)
